- ASSAY PROCEDURE: RP, Waters ACQUITY UPLC BEH C18, 100 × 1 mm, 1.7 µm, 50 °C, 0.3 mL/min, estimated dead time 0.17 min; A: water + 0.1% formic acid + 20 mM ammonium formate; B: methanol + 0.1% formic acid + 20 mM ammonium formate; gradient (min/%B) 0/0 15/100 21/100 22/0 30/0
- STATED CONDITIONS: stereoisomer not certain
The compounds listed here are annotated with their LC retention time.
Your answer is read as min, so omit the unit and give the number.

Given the compound COP(=O)(OC)Oc1nc(Cl)c(Cl)cc1Cl , what is its reported LC retention time?
13.7

Given the compound CCN(CC)C(=O)SCc1ccc(Cl)cc1 , what is its reported LC retention time?
16

Given the compound CCCOc1nn(C(=O)NS(=O)(=O)c2ccccc2C(=O)OC)c(=O)n1C , what is its reported LC retention time?
11.8

Given the compound CCOc1cc(C(C)(C)C)ccc1C1COC(c2c(F)cccc2F)=N1 (stereo not given) , what is its reported LC retention time?
17.4

Given the compound CC1=CC(=O)NS(=O)(=O)O1 , what is its reported LC retention time?
2.66

---

The compounds listed here are annotated with their LC retention time.
- ASSAY PROCEDURE: RP, Waters ACQUITY UPLC BEH C18, 100 × 1 mm, 1.7 µm, 50 °C, 0.3 mL/min, estimated dead time 0.17 min; A: water + 0.1% formic acid + 20 mM ammonium formate; B: methanol + 0.1% formic acid + 20 mM ammonium formate; gradient (min/%B) 0/0 15/100 21/100 22/0 30/0
- STATED CONDITIONS: stereoisomer not certain
Your answer is read as min, so omit the unit and give the number.

Worked examples, 5 compounds total:
O=C(O)Cc1c[nH]c2ccc(O)cc12 [5-Hydroxyindole-3-acetic acid]    6.7
CNC(=O)Oc1cc(C)c(N(C)C)c(C)c1 [Mexacarbate]    8.62
CC(=O)Oc1ccccc1C(=O)O [Acetylsalicyls<e4>ure]    16.5
CCOP(=S)(OCC)SCCSCC [Disulfoton]    16
CC12CCC3C(CCC4C(O)C(=O)C=CC43C)C1CCC2=O (centres undefined) [4- Hydroxyandrostenedione]    11.7

Given the compound CCCCCCCCCCCCNC [N-Methyldodecylamine] , what is its reported LC retention time?
15.2

Given the compound N#Cc1ccccc1C#N [Phthalonitrile] , what is its reported LC retention time?
8.45

Given the compound CCCCCCCCCCCCc1ccccc1S(=O)(=O)O [Dodecylbenzenesulfonic acid] , what is its reported LC retention time?
17.2

Given the compound CCCCCCCCn1sccc1=O [2-Octyl-4-isothiazolin-3-one] , what is its reported LC retention time?
15

---

- ASSAY PROCEDURE: RP, Waters ACQUITY UPLC BEH C18, 100 × 1 mm, 1.7 µm, 50 °C, 0.3 mL/min, estimated dead time 0.17 min; A: water + 0.1% formic acid + 20 mM ammonium formate; B: methanol + 0.1% formic acid + 20 mM ammonium formate; gradient (min/%B) 0/0 15/100 21/100 22/0 30/0
- STATED CONDITIONS: stereoisomer not certain
The molecules listed here are annotated with their LC retention time.
Your answer is read as min, so omit the unit and give the number.

Worked examples, 3 molecules total:
Cc1ccc(OP(=O)(Oc2ccc(C)cc2)Oc2ccc(C)cc2)cc1 [Tricresylphosphate]    17.3
O=C(OC1CCCCC1)c1ccccc1C(=O)OC1CCCCC1    14.2
c1ccc2sc(SN3CCOCC3)nc2c1    12.1

Given the molecule CN(C)c1ccncc1 , what is its reported LC retention time?
4.07

Given the molecule CN(C)C(=S)SC(=S)N(C)C [Tetramethylthiuram monosulfide] , what is its reported LC retention time?
9.49

Given the molecule O=S(=O)(O)NC1CCCCC1 [Cyclamate] , what is its reported LC retention time?
6.54

Given the molecule CCCCCCOC(=O)c1ccccc1C(=O)OCCCCCC [Dihexylphthalate] , what is its reported LC retention time?
18.2

The measured values listed here are drawn from the RepoRT retention time repository (doi:10.1021/acs.analchem.1c00972).
